Biological target: MtDXPS (Mycobacterium tuberculosis, UniProt P9WNS3)
Sequence (P9WNS3 whole entry, looked up): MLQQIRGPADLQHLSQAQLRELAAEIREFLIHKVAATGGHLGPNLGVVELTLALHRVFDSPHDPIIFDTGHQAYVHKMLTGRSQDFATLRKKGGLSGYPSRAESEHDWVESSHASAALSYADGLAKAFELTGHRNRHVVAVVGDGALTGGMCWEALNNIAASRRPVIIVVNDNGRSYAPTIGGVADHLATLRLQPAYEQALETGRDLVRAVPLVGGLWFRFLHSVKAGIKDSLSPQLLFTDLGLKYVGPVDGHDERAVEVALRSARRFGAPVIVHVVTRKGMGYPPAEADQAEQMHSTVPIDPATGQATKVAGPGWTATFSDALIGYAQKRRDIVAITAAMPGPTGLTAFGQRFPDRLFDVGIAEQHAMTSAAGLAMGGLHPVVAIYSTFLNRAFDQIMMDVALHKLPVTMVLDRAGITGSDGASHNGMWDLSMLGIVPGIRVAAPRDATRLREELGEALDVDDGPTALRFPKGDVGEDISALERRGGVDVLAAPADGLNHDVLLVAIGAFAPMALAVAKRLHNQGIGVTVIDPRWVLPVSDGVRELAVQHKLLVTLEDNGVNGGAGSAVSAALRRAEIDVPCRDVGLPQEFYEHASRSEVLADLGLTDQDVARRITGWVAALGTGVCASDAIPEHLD
Assay: biochemical
Details: IC50 (μM)
experimental endpoint: IC50 (µM)
Number only, in µM; omit the unit.

              structure_smiles_string  quantity_unit  numeric_result
0  OCc1cn(Cc2ccc(Cl)c(Cl)c2)c2ccccc12             µM              34

# query: IC50 of entry ON=C(Cc1ccc(Cl)cc1)c1ccc(O)cc1O
44

Also Cc1nc(N)sc1-c1csc(Nc2ccc(C(F)(F)F)cc2)n1 , if possible.
32

---

Molecular target: MtDXPS (Mycobacterium tuberculosis, UniProt P9WNS3)
experimental endpoint: Kd (nM)
Number only, in nM; omit the unit.

# query: Kd of entry OCc1cn(Cc2ccc(Cl)c(Cl)c2)c2ccccc12
1370

---

System: E. coli strain BL21 (DE3) pQEYAEM
Assay: microbe, parasite or virus in culture
Type: cell-based
Conditions: Escherichia coli, Fig. 6A; [IPTG] 0 mM
Reported MIC by item:
Number only, in µM; omit the unit.

>>> print(df.to_string())
                                   compound  quantity_unit  numeric_result
0           ON=C(Cc1ccc(Cl)cc1)c1ccc(O)cc1O             µM              12
1  O=CN(O)CCCP(=O)(O)O [Fosmidomycin, fosmidomycin, reference compound]             µM              76
2        OCc1cn(Cc2ccc(Cl)c(Cl)c2)c2ccccc12             µM              13

Turning now to a further record.
# query: MIC of entry Cc1nc(N)sc1-c1csc(Nc2ccc(C(F)(F)F)cc2)n1
15

---

Target: MtDXPS (Mycobacterium tuberculosis, UniProt P9WNS3)
Experiment: biochemical
Details: Table S1, first round of LBVS; MtDXPS; read-out: IC50
experimental endpoint: IC50

Examples with answers:
>>> print(df.to_string())
                                   compound  experimental_endpoint     result
0  CN1C(=O)CCC(C(=O)O)C1c1ccccc1 (stereo not shown)                   IC50  > 1000 µM
1  Cc1ccc(C2NC(N)=Nc3nc4ccccc4n32)o1 (stereo not shown)                   IC50  > 1000 µM
2  CCCCC(C(=O)O)C(C)CC(=O)Nc1nncs1 (stereo not shown)                   IC50  > 1000 µM
3  Cc1nc(-c2ccccc2)nc(Nc2ccccc2)c1Cc1ccccc1                   IC50    > 15 µM
4                 Nn1c(S)nnc1Cn1cnc2ccccc21                   IC50  > 1000 µM
5  COc1ccc(OC)c(C2CC(=O)NC3=C2C(=O)CCC3)c1 (stereo not shown)                   IC50   > 500 µM

# query: IC50 of entry CCCCNC(=O)N(C)Cc1c(C)nn(CC)c1C
> 1000 µM

Also O=C(O)CCc1ccc(-c2ccc(F)cc2)n1Cc1ccco1 , if possible.
> 500 µM

Also CSc1ccc(C2N=C(N)Nc3nc4ccccc4n32)cc1 (stereo not shown) , if possible.
> 60 µM

Also Cc1cc(C(=O)O)c(-c2ccccc2)o1 , if possible.
> 1000 µM
